Hey, just so you know, these numbers are from paper PMC10572602.

target under test: the molecule itself
experimental protocol: AUC; sedimentation velocity, 10 µM peptide, c(s) distribution; 20 °C, 25 mM sodium phosphate pH 6.8, ionic strength 154 mM (NaCl)
No end group written: not given here.
I'd appreciate it if you could supply stoichiometry N values for the items below.
Answers are plain numbers.

LSPDAYRFLTELDRQLRLLQAQIQRLLEAQSL-NH2 (STIL coiled-coil domain, residues 718-749, with Q729L; also called STIL CCD Q729L; source: synthetic peptide (Fmoc-SPPS on rink amide, RP-HPLC purified)) [STIL CCD_(718–749) Q729L]    3.56
LSPDAYRFLTEQDRQLRLLQAQIQRLLEAQSL-NH2 (STIL (SCL/TAL1 Interrupting Locus) coiled-coil domain, residues 718-749; 32-residue peptide, unlabelled; also called WT STIL CCD peptide; WT CCD; source: synthetic peptide (Fmoc-SPPS on rink amide, RP-HPLC purified)) [STIL CCD_(718–749) WT]    1.7
LSPDLYRFLTEQDRQLRLLQAQIQRLLEAQSL-NH2 (STIL coiled-coil domain, residues 718-749, with A722L; source: synthetic peptide (Fmoc-SPPS on rink amide, RP-HPLC purified)) [STIL CCD_(718–749) A722L]    3.92

API: the following record is the query input.
Prompt: // returns reported stoichiometry N for input LSPDLYRFLTELDRQLRLLQAQIQRLLEAQSL-NH2 (STIL coiled-coil domain, residues 718-749, with A722L and Q729L; also called double mutant; source: synthetic peptide (Fmoc-SPPS on rink amide, RP-HPLC purified)) [STIL CCD_(718–749) A722L Q729L]
Completion: 4.22
